Biological target: TrkA (Homo sapiens, UniProt P04629)
Sequence (P04629 33-796, species assumed): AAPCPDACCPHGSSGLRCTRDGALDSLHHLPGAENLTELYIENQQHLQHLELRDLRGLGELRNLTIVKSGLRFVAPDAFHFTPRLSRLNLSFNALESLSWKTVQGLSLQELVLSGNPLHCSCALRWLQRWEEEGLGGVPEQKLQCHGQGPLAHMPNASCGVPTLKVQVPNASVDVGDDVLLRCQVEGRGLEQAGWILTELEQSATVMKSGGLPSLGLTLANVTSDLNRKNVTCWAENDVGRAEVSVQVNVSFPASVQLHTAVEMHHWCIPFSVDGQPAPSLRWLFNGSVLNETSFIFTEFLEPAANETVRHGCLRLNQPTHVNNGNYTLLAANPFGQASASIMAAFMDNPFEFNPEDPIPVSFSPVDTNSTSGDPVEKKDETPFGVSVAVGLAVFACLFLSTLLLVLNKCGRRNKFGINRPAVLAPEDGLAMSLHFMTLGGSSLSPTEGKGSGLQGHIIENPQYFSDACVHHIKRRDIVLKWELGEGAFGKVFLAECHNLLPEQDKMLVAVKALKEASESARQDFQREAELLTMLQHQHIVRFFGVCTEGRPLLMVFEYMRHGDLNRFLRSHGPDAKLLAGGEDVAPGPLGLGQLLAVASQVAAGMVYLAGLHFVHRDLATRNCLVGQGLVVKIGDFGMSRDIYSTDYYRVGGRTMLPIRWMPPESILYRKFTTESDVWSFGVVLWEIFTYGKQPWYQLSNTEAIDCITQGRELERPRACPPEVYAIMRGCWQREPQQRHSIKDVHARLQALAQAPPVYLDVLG
Assay: Table of THPI-244 analogs: TrkA increase
Entries and their % TrkA ⬆ values follow.
Phrase the answer as number then unit, nothing more needed.

# count of solved cases: 3
O=C(Cc1ccccc1)N[C@H](CNc1nc(CN2CCN(C(=O)Cc3ccccc3)CC2)cs1)c1ccccc1 ... 99%
Cc1cnc(C(=O)N[C@H](CNc2nc(CN3CCNCC3)cs2)c2ccccc2)cn1 ... 69%
c1ccc(CCNc2nc(CN3CCCCC3)cs2)cc1 ... 54%

Query % TrkA ⬆ for c1ccc(CCNc2nc(CN3CCOCC3)cs2)cc1
51%

From: patent US9994536B2
